assay: Chemical stability evaluation (storage 1 week, liquid chromatography peak area %); type: physicochemical; conditions: Table 5; change of related substances (peak area %) vs start
readout type: Chemical stability 60° C., 75% RH, 1 week (open) (%)
Answer format: numeric, % implied, no suffix.

Request: // lookup Chemical stability 60° C., 75% RH, 1 week (open) for CC(=O)NC1CCC(NC(=O)CN2CCN(c3nncc(-c4ccc(C)cc4)n3)CC2)CC1.CS(=O)(=O)O (stereo not shown) [Mesilate Form A crystal]
Response: 5.73

Request: Similarly, CC(=O)NC1CCC(NC(=O)CN2CCN(c3nncc(-c4ccc(C)cc4)n3)CC2)CC1.O=C(O)CC(O)(CC(=O)O)C(=O)O (stereo not shown) [Citrate Form A crystal] ?
Response: 0.03

Request: Similarly, CC(=O)NC1CCC(NC(=O)CN2CCN(c3nncc(-c4ccc(C)cc4)n3)CC2)CC1.CC(=O)NC1CCC(NC(=O)CN2CCN(c3nncc(-c4ccc(C)cc4)n3)CC2)CC1.O.O.O.O.O=S(=O)(O)O.O=S(=O)(O)O.O=S(=O)(O)O.O=S(=O)(O)O.O=S(=O)(O)O (stereo not shown) [Sulfate Form B crystal] ?
Response: 0.13

Request: Similarly, CC(=O)NC1CCC(NC(=O)CN2CCN(c3nncc(-c4ccc(C)cc4)n3)CC2)CC1.O=C(O)C=CC(=O)O (stereo not shown) [Maleate Form A crystal] ?
Response: 0.12

Request: Similarly, CC(=O)NC1CCC(NC(=O)CN2CCN(c3nncc(-c4ccc(C)cc4)n3)CC2)CC1.O=C(O)CCC(=O)O (stereo not shown) [Succinate Form A crystal] ?
Response: 0.02

Request: Similarly, CC(=O)NC1CCC(NC(=O)CN2CCN(c3nncc(-c4ccc(C)cc4)n3)CC2)CC1.Cc1ccc(S(=O)(=O)O)cc1.Cc1ccc(S(=O)(=O)O)cc1 (stereo not shown) [Tosilate Form C crystal] ?
Response: 0.39

Request: Similarly, CC(=O)NC1CCC(NC(=O)CN2CCN(c3nncc(-c4ccc(C)cc4)n3)CC2)CC1.Cl (stereo not shown) [Hydrochloride Form A crystal] ?
Response: −0.01

====

Assay: Pharmacokinetics in dogs treated with a promotor (pentagastrin) or an inhibitor (omeprazole) of gastric acid secretion
Type: in vivo, dogs (male beagle)
Conditions: male, beagle, dog, plasma, po, 10 mg, oral 10 mg/capsule (free form equivalent), fasted, Omeprazole, reduced gastric acid secretion, mean
Experimental: The pharmacokinetics of hydrobromide of the Triazine compound A and the Triazine compound A under gastric acid secretion and gastric pH adjustment was evaluated by using dogs treated with a promotor of gastric acid secretion or an inhibitor of gastric acid secretion according to a crossover method of 2 groups with 4 phases. Pentagastrin was used in the treatment of a promotor of gastric acid secretion. […]
readout type: Cmax

Request: // lookup Cmax for Br.CC(=O)N[C@H]1CC[C@H](NC(=O)CN2CCN(c3nncc(-c4ccc(C)cc4)n3)CC2)CC1 [Hydrobromide Form A crystal]
Response: 256 ng/mL

Request: Similarly, CC(=O)N[C@H]1CC[C@H](NC(=O)CN2CCN(c3nncc(-c4ccc(C)cc4)n3)CC2)CC1 ?
Response: 102 ng/mL

====

Please provide measured Chemical stability 60° C. (sealed) for the entries that follow.
test: Chemical stability evaluation (storage 1 week, liquid chromatography peak area %); format: physicochemical; conditions: Table 5; stored 1 week at 60° C. sealed; change of related substances (peak area %) vs start
Answer format: numeric, % implied, no suffix.

Request: // lookup Chemical stability 60° C. (sealed) for CC(=O)NC1CCC(NC(=O)CN2CCN(c3nncc(-c4ccc(C)cc4)n3)CC2)CC1.O=C(O)C=CC(=O)O (stereo not drawn) [Maleate Form B crystal]
Response: 0.02

Request: Similarly, CC(=O)NC1CCC(NC(=O)CN2CCN(c3nncc(-c4ccc(C)cc4)n3)CC2)CC1.CC(=O)NC1CCC(NC(=O)CN2CCN(c3nncc(-c4ccc(C)cc4)n3)CC2)CC1.O.O.O.O.O=S(=O)(O)O.O=S(=O)(O)O.O=S(=O)(O)O.O=S(=O)(O)O.O=S(=O)(O)O (stereo not drawn) [Sulfate Form B crystal] ?
Response: 0

Request: Similarly, CC(=O)NC1CCC(NC(=O)CN2CCN(c3nncc(-c4ccc(C)cc4)n3)CC2)CC1.O=C(O)CC(O)(CC(=O)O)C(=O)O (stereo not drawn) [Citrate Form A crystal] ?
Response: −0.03

====

Please provide measured half-life for the entries that follow.
Experiment: Pharmacokinetics in dogs treated with a promotor (pentagastrin) or an inhibitor (omeprazole) of gastric acid secretion
Type: in vivo, dogs (male beagle)
Details: male, beagle, dog, plasma, po, 10 mg, oral 10 mg/capsule, fasted, Omeprazole, reduced gastric acid secretion, mean
Experimental: The pharmacokinetics of hydrobromide of the Triazine compound A and the Triazine compound A under gastric acid secretion and gastric pH adjustment was evaluated by using dogs treated with a promotor of gastric acid secretion or an inhibitor of gastric acid secretion according to a crossover method of 2 groups with 4 phases. Pentagastrin was used in the treatment of a promotor of gastric acid secretion. […]
Answer format: numeric, h implied, no suffix.

Request: // lookup half-life for Br.CC(=O)N[C@H]1CC[C@H](NC(=O)CN2CCN(c3nncc(-c4ccc(C)cc4)n3)CC2)CC1 [Hydrobromide Form A crystal]
Response: 4.3

Request: Similarly, CC(=O)N[C@H]1CC[C@H](NC(=O)CN2CCN(c3nncc(-c4ccc(C)cc4)n3)CC2)CC1 ?
Response: 5.6

====

assay: Pharmacokinetics in dogs treated with a promotor (pentagastrin) or an inhibitor (omeprazole) of gastric acid secretion; format: in vivo, dogs (male beagle); conditions: male, beagle, dog, plasma, po, 10 mg, oral 10 mg/capsule (free form equivalent), fasted, Pentagastrin, increased gastric acid secretion, mean
readout type: Cmax (ng/mL)
Answer format: numeric, ng/mL implied, no suffix.

Request: // lookup Cmax for CC(=O)N[C@H]1CC[C@H](NC(=O)CN2CCN(c3nncc(-c4ccc(C)cc4)n3)CC2)CC1 [Triazine compound A]
Response: 222

Request: Similarly, Br.CC(=O)N[C@H]1CC[C@H](NC(=O)CN2CCN(c3nncc(-c4ccc(C)cc4)n3)CC2)CC1 [Hydrobromide Form A crystal] ?
Response: 263

====

assay: Hygroscopicity or deliquescency evaluation (moisture adsorption, DVS); format: physicochemical; details: Table 5; 25° C., 90% RH, relative to weight at 0% RH
Please provide measured Hygroscopicity or Deliquescency Weight change at 90% RH for the entries that follow.
Answer format: numeric, % implied, no suffix.

Request: // lookup Hygroscopicity or Deliquescency Weight change at 90% RH for CC(=O)NC1CCC(NC(=O)CN2CCN(c3nncc(-c4ccc(C)cc4)n3)CC2)CC1.O=C(O)C=CC(=O)O (centres unmarked) [Maleate Form B crystal]
Response: 7.5

Request: Similarly, CC(=O)NC1CCC(NC(=O)CN2CCN(c3nncc(-c4ccc(C)cc4)n3)CC2)CC1.Cl.Cl (centres unmarked) [Hydrochloride Form B crystal] ?
Response: 5.5

Request: Similarly, CC(=O)NC1CCC(NC(=O)CN2CCN(c3nncc(-c4ccc(C)cc4)n3)CC2)CC1.O=C(O)CO (centres unmarked) [Glycolate Form A crystal] ?
Response: 1.9

Request: Similarly, CC(=O)NC1CCC(NC(=O)CN2CCN(c3nncc(-c4ccc(C)cc4)n3)CC2)CC1.Cc1ccc(S(=O)(=O)O)cc1.Cc1ccc(S(=O)(=O)O)cc1 (centres unmarked) [Tosilate Form C crystal] ?
Response: 1.4

Request: Similarly, CC(=O)NC1CCC(NC(=O)CN2CCN(c3nncc(-c4ccc(C)cc4)n3)CC2)CC1.Cc1ccc(S(=O)(=O)O)cc1 (centres unmarked) [Tosilate Form B crystal] ?
Response: 7.5

Request: Similarly, CC(=O)NC1CCC(NC(=O)CN2CCN(c3nncc(-c4ccc(C)cc4)n3)CC2)CC1.CC(=O)NC1CCC(NC(=O)CN2CCN(c3nncc(-c4ccc(C)cc4)n3)CC2)CC1.O=S(=O)(O)O.O=S(=O)(O)O.O=S(=O)(O)O.O=S(=O)(O)O.O=S(=O)(O)O (centres unmarked) [Sulfate Form A crystal] ?
Response: 8

Request: Similarly, CC(=O)NC1CCC(NC(=O)CN2CCN(c3nncc(-c4ccc(C)cc4)n3)CC2)CC1.O=C(O)CCC(=O)O (centres unmarked) [Succinate Form A crystal] ?
Response: 0.4

Request: Similarly, CC(=O)NC1CCC(NC(=O)CN2CCN(c3nncc(-c4ccc(C)cc4)n3)CC2)CC1.O=C(O)CC(O)C(=O)O (centres unmarked) [Malate Form A crystal] ?
Response: 15

Request: Similarly, Br.CC(=O)N[C@H]1CC[C@H](NC(=O)CN2CCN(c3nncc(-c4ccc(C)cc4)n3)CC2)CC1 [Hydrobromide Form A crystal] ?
Response: 1.0

Request: Similarly, CC(=O)NC1CCC(NC(=O)CN2CCN(c3nncc(-c4ccc(C)cc4)n3)CC2)CC1.O=C(O)C=CC(=O)O (centres unmarked) [Maleate Form A crystal] ?
Response: 22
